# credit: the RNAGym collection of RNA variant scans (doi:10.1021/acssynbio.7b00057)

B1: Pistol ribozyme (parent)
chain: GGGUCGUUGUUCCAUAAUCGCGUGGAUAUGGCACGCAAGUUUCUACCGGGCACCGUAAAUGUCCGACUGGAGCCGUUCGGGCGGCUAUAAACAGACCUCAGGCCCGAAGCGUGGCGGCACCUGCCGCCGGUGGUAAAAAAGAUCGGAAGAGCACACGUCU

variants of: B1; test: aptazyme ON/OFF ratio, guanine; higher = stronger switching; co-transcriptional cleavage with and without guanine
EXPERIMENTAL_ENDPOINT: aptazyme ON/OFF ratio
# answer = number (no unit)

Give reported aptazyme ON/OFF ratio value for U7G G9C U11C C13U
1.39

Give reported aptazyme ON/OFF ratio value for U7G U8A G9C U10G U11G C13U
1.27

Give reported aptazyme ON/OFF ratio value for U7G U8C U10C U11C C12G
1.27

Give reported aptazyme ON/OFF ratio value for U7G G9U U10C C12G
1.37

Give reported aptazyme ON/OFF ratio value for U7G U8G U10G U11C C12A C13A
1.53

Give reported aptazyme ON/OFF ratio value for U7C U8C G9U U10G U11A C12G C13G
1.18

Give reported aptazyme ON/OFF ratio value for U7C U8A G9C U10G U11A C12U C13U
1.14

Give reported aptazyme ON/OFF ratio value for U8A G9A U10A C13U
1.2

Give reported aptazyme ON/OFF ratio value for U7A U8G G9A U11G C12G C13U
1.52

Give reported aptazyme ON/OFF ratio value for U7G U8G G9C U10C U11C C13A
1.09
